study system: T1, cTnI quality control product recombinant protein (human, UniProt P19429 1-210, limits assumed)
T1 construct: the assay paragraphs only say cTnI; also called cardiac troponin I; cTnI antigen
T1 sequence (P19429 whole entry): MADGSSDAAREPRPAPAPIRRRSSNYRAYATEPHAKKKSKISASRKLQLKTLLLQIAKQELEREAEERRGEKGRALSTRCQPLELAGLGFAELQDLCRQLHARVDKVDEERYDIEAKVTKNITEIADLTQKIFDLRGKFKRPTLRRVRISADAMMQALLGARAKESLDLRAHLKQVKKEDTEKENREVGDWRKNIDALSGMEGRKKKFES
protocol summary: AMC biosensor, antibody on sensor
outcome measure: log10(koff) (log10 of the value in s⁻¹)
# log10 transformed; quantity=koff; unit=s⁻¹

Worked set:
binder="Mutation 1 (antibody, V domains shown, other CDR sites as WT) VH: QVQLQQSGTELAKPGASVKFSCKASGYTFSTYWMYWIKQRPGQGLEWIGYLNPSSGHTDYNQRFKDKATLTADKSSSTAYMQLNSLTSEDSAVYYCARKYFGPFGMDYWGQGTSVTVSS VL: EIFLTQSPAIMSASPGEKVTMTCSASTTVSYVHWYQQKSGTSPKRWLYDTSKIASGIPVRFSGSGSGTSYSLTISSMEAEDAATYYCQQWSTQPYTFGGGTKLEIKR" value=-3.58
binder="WT 1-4 (antibody, V domains shown) VH: QVQLQQSGTELAKPGASVKFSCKASDYTFSTYWMYWIKQRPGQGLEWIGYINPSSGHTEYNQRFKDKATLTADKSSSTAYMQLNSLTSEDSAVYYCARKYYGPFAMDYWGQGTSVTVSS VL: EIFLTQSPAIMSASPGEKVTMTCSASTTVSYAHWYQQKSGTSPKRWLYDSSKIASGIPVRFSGSGSGTSYSLTISSMEAEDAATYYCQNWSTNPYTFGGGTKLEIKR" value=-3.04
binder="Mutation 1-36 (antibody, V domains shown) VH: QVQLQQSGTELAKPGASVKFSCKASGYTFSTYWMYWIKQRPGQGLEWIGYINPSSGHTDYNQRFKDKATLTADKSSSTAYMQLNSLTSEDSAVYYCARRYWGPFGMDYWGQGTSVTVSS VL: EIFLTQSPAIMSASPGEKVTMTCSASSTVSYVHWYQQKSGTSPKRWLYDTSKIASGIPVRFSGSGSGTSYSLTISSMEAEDAATYYCQQWSTNPYTFGGGTKLEIKR" value=-4.02
binder="Mutation 1-48 (antibody, V domains shown) VH: QVQLQQSGTELAKPGASVKFSCKASGYTFSSYWMYWIKQRPGQGLEWIGYLNPSTGHTDYNQRFKDKATLTADKSSSTAYMQLNSLTSEDSAVYYCARRYWGPFGMDYWGQGTSVTVSS VL: EIFLTQSPAIMSASPGEKVTMTCSASSTVSYVHWYQQKSGTSPKRWIYDTSKIASGIPVRFSGSGSGTSYSLTISSMEAEDAATYYCQQWSTNPYTFGGGTKLEIKR" value=-4.07
binder="Mutation 1-29 (antibody, V domains shown) VH: QVQLQQSGTELAKPGASVKFSCKASGYTFSSYWMYWIKQRPGQGLEWIGYINPSSGHTDYNQKFKDKATLTADKSSSTAYMQLNSLTSEDSAVYYCARKYWGPFGMDYWGQGTSVTVSS VL: EIFLTQSPAIMSASPGEKVTMTCSASSSVSYVHWYQQKSGTSPKRWIYDTSKIASGIPVRFSGSGSGTSYSLTISSMEAEDAATYYCQQWSSNPYTFGGGTKLEIKR" value=-4.82

# return log10(koff) for each item in the list
1. Mutation 1-21 (antibody, V domains shown) VH: QVQLQQSGTELAKPGASVKFSCKASGYTFSSYWMYWIKQRPGQGLEWIGYLNPSTGHTDYNQRFKDKATLTADKSSSTAYMQLNSLTSEDSAVYYCARKYFGPFGMDYWGQGTSVTVSS VL: EIFLTQSPAIMSASPGEKVTMTCSASTSVSYVHWYQQKSGTSPKRWIYDTSKIASGIPVRFSGSGSGTSYSLTISSMEAEDAATYYCQQWSSQPYTFGGGTKLEIKR
2. Mutation 1-11 (antibody, V domains shown) VH: QVQLQQSGTELAKPGASVKFSCKASGYTFTSYWMYWIKQRPGQGLEWIGYINPSSGHTDYNQKFKDKATLTADKSSSTAYMQLNSLTSEDSAVYYCARKYWGPFGMDYWGQGTSVTVSS VL: EIFLTQSPAIMSASPGEKVTMTCSASTSVSYVHWYQQKSGTSPKRWIYDTSKLASGIPVRFSGSGSGTSYSLTISSMEAEDAATYYCQQWSTQPYTFGGGTKLEIKR
3. Mutation 1-27 (antibody, V domains shown) VH: QVQLQQSGTELAKPGASVKFSCKASGYTFTSYWMYWIKQRPGQGLEWIGYLNPSSGHTDYNQKFKDKATLTADKSSSTAYMQLNSLTSEDSAVYYCARKYFGPFGMDYWGQGTSVTVSS VL: EIFLTQSPAIMSASPGEKVTMTCSASTSVSYVHWYQQKSGTSPKRWIYDTSKLASGIPVRFSGSGSGTSYSLTISSMEAEDAATYYCQQWSSNPYTFGGGTKLEIKR
4. Mutation 1-39 (antibody, V domains shown) VH: QVQLQQSGTELAKPGASVKFSCKASGYTFTTYWMYWIKQRPGQGLEWIGYLNPSTGHTDYNQKFKDKATLTADKSSSTAYMQLNSLTSEDSAVYYCARKYWGPFGMDYWGQGTSVTVSS VL: EIFLTQSPAIMSASPGEKVTMTCSASTSVSYVHWYQQKSGTSPKRWIYDTSKLASGIPVRFSGSGSGTSYSLTISSMEAEDAATYYCQQWSTQPYTFGGGTKLEIKR
5. Mutation 1-33 (antibody, V domains shown) VH: QVQLQQSGTELAKPGASVKFSCKASGYTFSSYWMYWIKQRPGQGLEWIGYINPSTGHTDYNQKFKDKATLTADKSSSTAYMQLNSLTSEDSAVYYCARKYFGPFGMDYWGQGTSVTVSS VL: EIFLTQSPAIMSASPGEKVTMTCSASTSVSYVHWYQQKSGTSPKRWIYDTSKIASGIPVRFSGSGSGTSYSLTISSMEAEDAATYYCQQWSSNPYTFGGGTKLEIKR

-3.58
-5.35
-3.43
-4.55
-4.02

The measured values listed here are drawn from patent US20220033483A1.
